# tested_system: Human M4 (Homo sapiens, UniProt P08173)
# Construct: Human or rat M4 cDNA, along with the chimeric G protein Gq,5, were transfected into Chinese hamster ovary (CHO-K1) cells; expressed in transfected cells; host or cells: CHO-K1 (M4/Gqi5/CHO)
# experiment_notes: mAChR M4 cell-based functional assay (calcium flux, decrease of EC80 acetylcholine response)
# experimental_context: % ACh maximum at 30 μM
quantity_name: Human M4 Emin (%)

Fc1cc(F)c(F)c(-c2ccc(N[C@H]3C[C@@H]4CN(CCC5COC5)C[C@@H]4C3)nn2)c1 = 4
Fc1cc(F)c(F)c(-c2ccc(N[C@H]3C[C@@H]4CN(Cc5cc(Cl)ccn5)C[C@@H]4C3)nn2)c1 = 3
Cc1cccnc1CN1C[C@H]2C[C@H](Nc3ccc(-c4cc(F)cc(F)c4F)nn3)C[C@H]2C1 = 5
OC1(CN2C[C@H]3C[C@H](Nc4ccc(-c5cc(F)cc(F)c5F)nn4)C[C@H]3C2)CCCC1 = 2
Fc1cc(F)c(F)c(-c2ccc(N[C@H]3C[C@@H]4CN(Cc5cccc(Cl)n5)C[C@@H]4C3)nn2)c1 = 5
[2H]C(C)(C1CCOCC1)N1C[C@H]2C[C@H](Nc3ccc(-c4cc(F)cc(F)c4F)nn3)C[C@H]2C1 (stereo partly shown) = 3
Cc1cccc(CN2C[C@H]3C[C@H](Nc4ccc(-c5cc(F)cc(F)c5F)nn4)C[C@H]3C2)n1 = 3

---

This listing pairs compounds with measured Human M4 Emin.
# tested_system: Human M4 (Homo sapiens)
# Construct: Human or rat M4 cDNA, along with the chimeric G protein Gq,5, were transfected into Chinese hamster ovary (CHO-K1) cells; expressed in transfected cells; host or cells: CHO-K1 (M4/Gqi5/CHO)
# Sequence (P08173 1-479): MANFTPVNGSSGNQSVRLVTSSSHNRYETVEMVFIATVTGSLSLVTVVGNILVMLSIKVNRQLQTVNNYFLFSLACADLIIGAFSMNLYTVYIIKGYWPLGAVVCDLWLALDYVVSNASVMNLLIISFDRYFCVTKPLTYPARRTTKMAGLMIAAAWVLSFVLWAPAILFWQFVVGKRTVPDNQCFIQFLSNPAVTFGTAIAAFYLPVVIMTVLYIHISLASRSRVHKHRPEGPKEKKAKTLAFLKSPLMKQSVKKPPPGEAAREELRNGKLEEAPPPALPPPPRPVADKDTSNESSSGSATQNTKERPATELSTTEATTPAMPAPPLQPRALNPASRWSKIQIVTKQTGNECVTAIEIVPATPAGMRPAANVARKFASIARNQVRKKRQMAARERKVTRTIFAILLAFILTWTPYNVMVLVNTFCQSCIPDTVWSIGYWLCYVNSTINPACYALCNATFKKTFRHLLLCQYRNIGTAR
# experiment_notes: mAChR M4 cell-based functional assay (calcium flux, decrease of EC80 acetylcholine response)
# experimental_context: % ACh maximum at 30 μM
quantity_name: Human M4 Emin (%)

CC(C)(O)CCN1C[C@H]2C[C@H](Nc3ccc(-c4cc(F)cc(F)c4F)nn3)C[C@H]2C1 [Compound 54] = 5
CC(C)(C)CCN1C[C@H]2C[C@H](Nc3ccc(-c4cc(F)cc(F)c4F)nn3)C[C@H]2C1 [Compound 51] = 3
Fc1cc(F)c(F)c(-c2ccc(N[C@H]3C[C@@H]4CN(C[C@H]5CC6CCC5O6)C[C@@H]4C3)nn2)c1 (some centres unmarked) [Compound 31] = 3
[2H]C([2H])(N1C[C@H]2C[C@H](Nc3ccc(-c4cc(F)cc(F)c4F)nn3)C[C@H]2C1)C1(CC)CCOCC1 [Compound 33] = 3
[2H]C([2H])(C1CCCOCC1)N1C[C@H]2C[C@H](Nc3ccc(-c4cc(F)cc(F)c4F)nn3)C[C@H]2C1 (some centres unmarked) [Compound 78] = 2
OC1(CN2C[C@H]3C[C@H](Nc4ccc(-c5cc(F)cc(F)c5F)nn4)C[C@H]3C2)CCCCC1 [Compound 9] = 3
Fc1cc(F)c(F)c(-c2ccc(N[C@H]3C[C@@H]4CN(CCC5CCOCC5)C[C@@H]4C3)nn2)c1 [Compound 4] = 4
Fc1cc(F)c(F)c(-c2ccc(N[C@H]3C[C@@H]4CN(Cc5ccccn5)C[C@@H]4C3)nn2)c1 [Compound 2] = 4
Fc1cc(F)c(F)c(-c2ccc(N[C@H]3C[C@@H]4CN(CC5(F)CCCCC5)C[C@@H]4C3)nn2)c1 [Compound 87] = 3
Fc1cc(F)c(F)c(-c2ccc(N[C@H]3C[C@@H]4CN(C[C@H]5[C@@H]6COC[C@@H]65)C[C@@H]4C3)nn2)c1 [Compound 71] = 3
Fc1cc(F)c(F)c(-c2ccc(N[C@H]3C[C@@H]4CN(C[C@@H]5COCCO5)C[C@@H]4C3)nn2)c1 [Compound 28] = 4
[2H]C([2H])([C@@H]1CCCOC1)N1C[C@H]2C[C@H](Nc3ccc(-c4cc(F)cc(F)c4F)nn3)C[C@H]2C1 [Compound 66] = 3
Fc1cc(F)c(F)c(-c2ccc(N[C@@H]3C[C@H]4CN(CC5CCOCC5)C[C@H]4[C@@H]3F)nn2)c1 (racemic) [Compound 86] = 2
[2H]C([2H])(COCC)N1C[C@H]2C[C@H](Nc3ccc(-c4cc(F)cc(F)c4F)nn3)C[C@H]2C1 [Compound 79] = 5
[2H]C([2H])(C1CCOCC1(F)F)N1C[C@H]2C[C@H](Nc3ccc(-c4cc(F)cc(F)c4F)nn3)C[C@H]2C1 (some centres unmarked) [Compound 93] = 3
Fc1cc(F)c(F)c(-c2ccc(N[C@H]3C[C@@H]4CN(C5CCCCC5)C[C@@H]4C3)nn2)c1 [Compound 34] = 2
Fc1cc(F)c(F)c(-c2ccc(N[C@H]3C[C@@H]4CN(C5CCC6(CCOCC6)CC5)C[C@@H]4C3)nn2)c1 [Compound 5] = 3
CC(c1ccccn1)N1C[C@H]2C[C@H](Nc3ccc(-c4cc(F)cc(F)c4F)nn3)C[C@H]2C1 (some centres unmarked) [Compound 13] = 3
[2H]C([2H])([C@@H]1CCCCO1)N1C[C@H]2C[C@H](Nc3ccc(-c4cc(F)cc(F)c4F)nn3)C[C@H]2C1 [Compound 43] = 4
OC1CCCCC1N1C[C@H]2C[C@H](Nc3ccc(-c4cc(F)cc(F)c4F)nn3)C[C@H]2C1 (some centres unmarked) [Compound 65] = 6
Fc1cc(F)c(F)c(-c2ccc(N[C@H]3C[C@@H]4CN(Cc5cc6n(n5)CCOC6)C[C@@H]4C3)nn2)c1 [Compound 36] = 3
Fc1cc(F)c(F)c(-c2ccc(N[C@H]3C[C@@H]4CN(Cc5ccc6c(c5)OC(F)(F)O6)C[C@@H]4C3)nn2)c1 [Compound 37] = 11
Fc1cc(F)c(F)c(-c2ccc(N[C@H]3C[C@@H]4CN(C[C@H]5CCOC5)C[C@@H]4C3)nn2)c1 [Compound 30] = 2
Fc1cc(F)c(F)c(-c2ccc(N[C@H]3C[C@@H]4CN(CCC(F)(F)F)C[C@@H]4C3)nn2)c1 [Compound 60] = 13
Fc1cc(F)c(F)c(-c2ccc(N[C@H]3C[C@@H]4CN(CC5CC56CCOCC6)C[C@@H]4C3)nn2)c1 (some centres unmarked) [Compound 72] = 3
Fc1ccc(CN2C[C@H]3C[C@H](Nc4ccc(-c5cc(F)cc(F)c5F)nn4)C[C@H]3C2)c(F)c1 [Compound 91] = 4
